- STUDY_SYSTEM: T1, mouse gonadotropin-releasing hormone receptor (GnRH-R), clone WZ25 (mouse)
- T1 chain: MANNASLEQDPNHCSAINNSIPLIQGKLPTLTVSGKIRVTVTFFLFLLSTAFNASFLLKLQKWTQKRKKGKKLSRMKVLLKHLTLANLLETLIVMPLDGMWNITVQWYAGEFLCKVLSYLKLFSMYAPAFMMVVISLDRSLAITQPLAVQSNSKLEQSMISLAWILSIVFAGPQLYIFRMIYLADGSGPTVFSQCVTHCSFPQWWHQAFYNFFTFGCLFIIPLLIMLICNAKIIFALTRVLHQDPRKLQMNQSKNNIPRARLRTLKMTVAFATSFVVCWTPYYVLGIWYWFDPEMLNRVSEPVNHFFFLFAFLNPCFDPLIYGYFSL
- TEST_DESCRIPTION: displacement of 125I-GnRH-A by GnRH-A, membranes of WZ25 RNA-injected oocytes
Non-standard residues stand in square brackets, D forms with d. No end group written: not given here. NMeL = CN[C@@H](CC(C)C)C(=O)O
REPORTED_METRIC: Kd (nM)
Expressed in nM, but write only the number.

// query Note Kd for the binder shown: QHWSY[dA][NMeL]RP-NHEt (ends and bridges not checked; also: 125I label on the tracer form) [[D-Ala6, NαMe-Leu7, Pro9-NHEt]GnRH (GnRH-A)]
// result 4.5
